# system_tested: SpCas9–gRNA complex (Streptococcus pyogenes serotype M1, UniProt Q99ZW2)
# Construct: His6 (N); TEV site (N); made in house; host or cells: E. coli BL21 Star (DE3)
# Sequence (Q99ZW2 whole entry, one chain of several): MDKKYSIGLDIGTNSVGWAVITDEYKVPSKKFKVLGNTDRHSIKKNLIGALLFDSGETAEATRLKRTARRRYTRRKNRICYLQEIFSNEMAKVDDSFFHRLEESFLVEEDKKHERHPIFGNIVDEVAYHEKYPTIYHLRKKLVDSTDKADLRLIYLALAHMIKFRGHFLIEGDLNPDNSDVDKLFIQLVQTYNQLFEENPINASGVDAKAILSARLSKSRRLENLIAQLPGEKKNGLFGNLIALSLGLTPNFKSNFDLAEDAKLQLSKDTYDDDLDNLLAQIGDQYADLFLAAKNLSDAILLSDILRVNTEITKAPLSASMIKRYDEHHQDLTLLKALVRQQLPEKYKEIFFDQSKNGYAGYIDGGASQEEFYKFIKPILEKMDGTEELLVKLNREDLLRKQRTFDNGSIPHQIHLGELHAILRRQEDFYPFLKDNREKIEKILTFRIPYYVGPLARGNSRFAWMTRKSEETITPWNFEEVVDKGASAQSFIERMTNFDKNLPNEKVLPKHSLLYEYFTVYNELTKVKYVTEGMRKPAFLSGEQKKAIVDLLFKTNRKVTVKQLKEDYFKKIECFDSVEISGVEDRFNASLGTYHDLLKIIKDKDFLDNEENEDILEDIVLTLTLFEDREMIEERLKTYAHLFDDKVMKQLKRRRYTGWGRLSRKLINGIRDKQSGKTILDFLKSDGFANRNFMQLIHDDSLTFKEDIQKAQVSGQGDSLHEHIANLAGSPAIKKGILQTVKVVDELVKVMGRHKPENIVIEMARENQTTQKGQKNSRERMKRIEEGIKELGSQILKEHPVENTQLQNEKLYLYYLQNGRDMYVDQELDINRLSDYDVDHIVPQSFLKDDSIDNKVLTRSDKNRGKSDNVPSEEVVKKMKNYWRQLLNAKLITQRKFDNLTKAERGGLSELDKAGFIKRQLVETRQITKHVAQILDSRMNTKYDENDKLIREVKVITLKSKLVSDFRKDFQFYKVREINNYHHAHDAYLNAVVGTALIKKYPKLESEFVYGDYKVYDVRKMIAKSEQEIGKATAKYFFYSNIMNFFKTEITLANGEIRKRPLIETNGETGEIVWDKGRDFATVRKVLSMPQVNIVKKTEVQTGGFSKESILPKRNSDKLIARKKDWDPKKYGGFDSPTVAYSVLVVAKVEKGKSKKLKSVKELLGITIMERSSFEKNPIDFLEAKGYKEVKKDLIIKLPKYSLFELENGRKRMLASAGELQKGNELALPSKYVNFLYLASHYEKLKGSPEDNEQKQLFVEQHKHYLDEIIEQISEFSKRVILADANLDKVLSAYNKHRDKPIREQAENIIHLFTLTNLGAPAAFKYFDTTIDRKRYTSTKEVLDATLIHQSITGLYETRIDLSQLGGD
# assay_overview: Microscale thermophoresis (MST), SpCas9-gRNA RNP
# Format: binding
# condition_notes: SpCas9-EGFP/gRNA RNP (1:1) 200 nM, 25 °C
observation_type: EC50 (µM)
State just the number; it will be interpreted in µM.

// returns reported EC50 for input CC1(C)CC(=NNc2ccc([N+](=O)[O-])cc2[N+](=O)[O-])CC(C)(C)N1C(=O)COCC(=O)N1C(C)(C)CC(=NNc2ccc([N+](=O)[O-])cc2[N+](=O)[O-])CC1(C)C
5.63

---

# system_tested: SpCas9 (Streptococcus pyogenes serotype M1, UniProt Q99ZW2)
# Sequence (Q99ZW2 whole entry): as the sequence (Q99ZW2 whole entry, one chain of several) above
# assay_overview: Inhibition of SpCas9 nuclease activity in EGFP/iCas9/gRNA-EGFP reporter 293T cells (flow cytometry)
# Format: cell-based
# Set-up: expressed in transfected cells; host or cells: H2AX-EGFP HEK293T cells, lentiviral transduction, doxycycline-induced
# condition_notes: 40 μM, Dox 2 μg/mL, 72 h
observation_type: SpCas9 inhibition in reporter cells

Record excerpt, results attached:
>  <compound>
O=C1CCCC/C1=N\Nc1ccc([N+](=O)[O-])cc1

>  <SpCas9 inhibition in reporter cells>
less than 50%

$$$$
>  <compound>
COc1cc(Cl)ccc1N=NC1C(=O)N(c2ccccc2)N=C1C (stereo not drawn)

>  <SpCas9 inhibition in reporter cells>
less than 50%

$$$$
>  <compound>
O=C(Oc1ccc(/C=N/Nc2ccccc2)cc1)c1cc([N+](=O)[O-])cc([N+](=O)[O-])c1

>  <SpCas9 inhibition in reporter cells>
> 50%

$$$$
>  <compound>
O=C1CCCC/C1=N/Nc1ccc(N2CCCCC2)cc1

>  <SpCas9 inhibition in reporter cells>
less than 50%

$$$$
>  <compound>
O=C1CCCC/C1=N\Nc1ccc(OCc2ccccc2)cc1

>  <SpCas9 inhibition in reporter cells>
less than 50%

$$$$

Any idea what SpCas9 inhibition in reporter cells came out for CCCCOC(=O)c1ccc(NN=c2c(=O)c3ccccc3c2=O)cc1 on SpCas9 (Streptococcus pyogenes serotype M1, UniProt Q99ZW2)?
less than 50%

Lab note: need SpCas9 inhibition in reporter cells for Cc1cccc(N/N=C(/C#N)C(=O)c2ccc(Br)cc2)c1 on SpCas9 (Streptococcus pyogenes serotype M1, UniProt Q99ZW2), anyone have it?
> 50%

Record lookup: for SpCas9 (Streptococcus pyogenes serotype M1, UniProt Q99ZW2), what SpCas9 inhibition in reporter cells belongs to O=C1CCCC/C1=N/Nc1ccc(OC2CCCCC2)cc1 ?
> 50%

Give SpCas9 inhibition in reporter cells (SpCas9 (Streptococcus pyogenes serotype M1, UniProt Q99ZW2)) of the following compound: CC1(C)CC(=O)C(N=Nc2ccc3ncsc3c2)=C(O)C1
less than 50%

Requested read-out SpCas9 inhibition in reporter cells, target or system SpCas9 (Streptococcus pyogenes serotype M1, UniProt Q99ZW2), entry Cc1nc2ccc(N=NC3=C(O)CCCC3=O)cc2s1
less than 50%

Notebook: pull reported SpCas9 inhibition in reporter cells for SpCas9 (Streptococcus pyogenes serotype M1, UniProt Q99ZW2), entry COc1ccc(C(=O)Oc2ccccc2/C=N\Nc2ccc([N+](=O)[O-])cc2)cc1
less than 50%

Given the entry CCOC(=O)c1oc2c(c1C)/C(=N\Nc1ccc([N+](=O)[O-])cc1)CCC2 , what SpCas9 inhibition in reporter cells was observed with SpCas9 (Streptococcus pyogenes serotype M1, UniProt Q99ZW2)?
less than 50%
